Source of measurements: patent US10238637B2

Ki: recorded values
TARGET_OR_TEST_SYSTEM: adenosine A1 receptor (Homo sapiens, UniProt P30542)
Construct: purchased Receptor Biology, Inc. (USA)
Sequence (P30542 1-326): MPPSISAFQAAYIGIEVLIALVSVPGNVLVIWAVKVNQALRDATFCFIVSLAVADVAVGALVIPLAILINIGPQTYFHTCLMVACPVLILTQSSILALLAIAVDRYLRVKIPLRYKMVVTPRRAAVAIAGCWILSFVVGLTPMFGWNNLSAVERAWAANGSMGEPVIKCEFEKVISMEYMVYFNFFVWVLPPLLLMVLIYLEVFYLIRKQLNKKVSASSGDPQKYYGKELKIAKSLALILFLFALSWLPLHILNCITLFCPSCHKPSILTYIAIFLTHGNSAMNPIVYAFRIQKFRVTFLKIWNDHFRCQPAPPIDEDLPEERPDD
EXPERIMENTAL_PROTOCOL: Adenosine receptor subtypes competition radioligand binding assay, A1 receptor
COND: human recombinant membranes

# MOLECULE, Ki
data = [
    ("COc1ccc(-c2nc(NC(=O)c3ccc(C(=O)O)s3)sc2C#N)cc1", "> 1000 nM"),
    ("COc1ccc(-c2nc(NC(=O)c3cccc(C(=O)O)c3)sc2C#N)cn1", "> 1000 nM"),
    ("N#Cc1sc(NC(=O)c2ccc(C(=O)O)s2)nc1-c1ccccc1F", "> 500 nM"),
    ("COc1ccc(-c2nc(NC(=O)c3ccc(C(=O)O)s3)sc2Cl)cc1", "> 1000 nM"),
    ("N#Cc1sc(NC(=O)c2ccc(C(=O)O)s2)nc1-c1ccc(F)cc1", "131 nM"),
    ("N#Cc1sc(NC(=O)c2ccc(C(=O)O)s2)nc1-c1ccccc1", "87 nM"),
    ("O=C(O)c1ccc(C(=O)Nc2nc(-c3ccccc3)c(F)s2)s1", "64 nM"),
    ("O=C(O)c1ccc(C(=O)Nc2nc(-c3ccccc3)c(Cl)s2)s1", "34 nM"),
    ("COc1ccc(-c2nc(NC(=O)c3cccc(C(=O)O)c3)sc2C#N)cc1", "> 1000 nM"),
]

* * *

Some compounds, each annotated with its measured Ki.
TARGET_OR_TEST_SYSTEM: human A3 receptors (Homo sapiens)
Construct: purchased Receptor Biology, Inc. (USA); host or cells: CHO cells
EXPERIMENTAL_PROTOCOL: Adenosine receptor subtypes competition radioligand binding assay, A3 receptor ([3H]-NECA)
COND: membranes from human A3 receptors transfected to CHO cells, 60 min at 25° C.

# MOLECULE, Ki [nM]
measured = [
    ("O=C(O)c1ccc(C(=O)Nc2nc(-c3ccccc3)c(Cl)s2)s1", 21),
    ("N#Cc1sc(NC(=O)c2ccc(C(=O)O)s2)nc1-c1ccccc1F", 99),
    ("O=C(O)c1ccc(C(=O)Nc2nc(-c3ccccc3)c(F)s2)s1", 10),
    ("COc1ccc(-c2nc(NC(=O)c3cccc(C(=O)O)c3)sc2C#N)cc1", 10),
    ("N#Cc1sc(NC(=O)c2ccc(C(=O)O)s2)nc1-c1cc(Cl)cs1", 12),
]

* * *

TARGET_OR_TEST_SYSTEM: human A3 receptors (Homo sapiens, UniProt P0DMS8)
Construct: purchased Receptor Biology, Inc. (USA); host or cells: CHO cells
Sequence (P0DMS8 whole entry): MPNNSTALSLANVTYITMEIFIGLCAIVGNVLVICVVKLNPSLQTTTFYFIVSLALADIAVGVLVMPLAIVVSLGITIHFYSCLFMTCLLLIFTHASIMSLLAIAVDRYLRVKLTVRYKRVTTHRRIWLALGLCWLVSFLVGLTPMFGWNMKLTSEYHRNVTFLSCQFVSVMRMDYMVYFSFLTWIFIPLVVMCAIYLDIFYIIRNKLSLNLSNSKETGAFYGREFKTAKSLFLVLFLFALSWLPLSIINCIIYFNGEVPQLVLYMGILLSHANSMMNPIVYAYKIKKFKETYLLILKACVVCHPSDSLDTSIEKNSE
EXPERIMENTAL_PROTOCOL: Adenosine receptor subtypes competition radioligand binding assay, A3 receptor ([3H]-NECA)
COND: membranes from human A3 receptors transfected to CHO cells, 60 min at 25° C.
ASSAY_ENDPOINT: Ki

# MOLECULE, ASSAY_RESULT
records = [
    ("COc1ccc(-c2nc(NC(=O)c3cccc(C(=O)O)c3)sc2C#N)cn1", "99 nM"),
    ("COc1ccc(-c2nc(NC(=O)c3ccc(C(=O)O)s3)sc2Cl)cc1", "24 nM"),
    ("N#Cc1sc(NC(=O)c2ccc(C(=O)O)s2)nc1-c1cccs1", "36 nM"),
    ("N#Cc1sc(NC(=O)c2ccc(C(=O)O)s2)nc1-c1ccccc1", "66 nM"),
    ("COc1ccc(-c2nc(NC(=O)c3ccc(C(=O)O)s3)sc2C#N)cc1", "23 nM"),
    ("N#Cc1sc(NC(=O)c2ccc(C(=O)O)s2)nc1-c1ccc(F)cc1", "66 nM"),
]
